Molecular target: TLR9 (Homo sapiens)
Sequence (Q9NR96 26-1032): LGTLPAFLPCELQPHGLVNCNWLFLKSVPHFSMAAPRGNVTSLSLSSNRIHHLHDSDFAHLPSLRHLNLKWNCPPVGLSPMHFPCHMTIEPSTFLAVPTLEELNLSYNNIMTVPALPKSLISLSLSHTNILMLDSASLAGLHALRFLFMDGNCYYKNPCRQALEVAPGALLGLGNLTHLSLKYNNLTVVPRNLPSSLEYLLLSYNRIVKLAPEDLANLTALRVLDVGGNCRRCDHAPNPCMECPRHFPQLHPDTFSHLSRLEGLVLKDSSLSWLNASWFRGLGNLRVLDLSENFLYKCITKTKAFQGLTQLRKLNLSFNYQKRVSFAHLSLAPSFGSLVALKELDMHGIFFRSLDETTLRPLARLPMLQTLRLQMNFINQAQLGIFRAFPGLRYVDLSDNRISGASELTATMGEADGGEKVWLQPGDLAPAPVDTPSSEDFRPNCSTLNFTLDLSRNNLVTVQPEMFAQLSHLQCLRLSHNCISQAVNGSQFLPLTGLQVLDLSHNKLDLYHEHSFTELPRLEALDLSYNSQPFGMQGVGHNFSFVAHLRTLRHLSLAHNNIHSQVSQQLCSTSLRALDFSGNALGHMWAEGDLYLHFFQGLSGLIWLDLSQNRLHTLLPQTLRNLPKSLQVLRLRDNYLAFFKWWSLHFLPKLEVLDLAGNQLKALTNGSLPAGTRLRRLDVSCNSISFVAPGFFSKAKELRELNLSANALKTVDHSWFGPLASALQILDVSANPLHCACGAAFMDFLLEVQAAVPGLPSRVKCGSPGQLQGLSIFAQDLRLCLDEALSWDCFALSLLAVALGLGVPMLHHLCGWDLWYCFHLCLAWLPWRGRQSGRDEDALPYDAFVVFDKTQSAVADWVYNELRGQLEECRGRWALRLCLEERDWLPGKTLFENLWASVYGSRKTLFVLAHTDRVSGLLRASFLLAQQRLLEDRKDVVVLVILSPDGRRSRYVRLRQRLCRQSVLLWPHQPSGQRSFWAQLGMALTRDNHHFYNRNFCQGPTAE
Test: Human PBMC cell-based assay
Parameters: endogenous in cells; host or cells: human PBMC from healthy donor whole blood
Conditions: CpG ODN 2216 stimulation, overnight, cytokine readout, read-out: hPBMC/TLR9 IC50
pIC50: −log10 of the molar value.
Measured pIC50 accompanies every entry in the list below.

- compound: "C[C@@H]1CN(c2ccc(C#N)c3ncccc23)C[C@H](CN2CC(n3ncc4c3CCN[C@@H]4C)C2)O1"
  pIC50: 7.01
- compound: "C[C@@H]1CN(c2ccc(C#N)c3ncccc23)C[C@H](CN2CC(n3cc4c(n3)CN[C@@H](C)C4)C2)O1 (single isomer, unassigned)"
  pIC50: 6.94
- compound: "C[C@@H]1CN(c2ccc(C#N)c3ncccc23)C[C@H](CN2CC(n3cc4c(n3)CCN[C@H]4C)C2)O1"
  pIC50: 6.84
- compound: "C[C@@H]1CN(c2ccc(C#N)c3ncccc23)C[C@H](CN2CC(n3cc4c(n3)CNCC4)C2)O1"
  pIC50: 6.70
- compound: "C[C@@H]1CN(c2ccc(C#N)c3ncccc23)C[C@H](CN2CC(n3ncc4c3[C@H](C)NCC4)C2)O1 (single isomer, unassigned)"
  pIC50: 6.84
- compound: "Cc1nn(C2CN(C[C@H]3CN(c4ccc(C#N)c5ncccc45)C[C@@H](C)O3)C2)c2c1CNCC2"
  pIC50: 7.04
- compound: "Cc1c2c(nn1C1CN(C[C@H]3CN(c4ccc(C#N)c5ncccc45)C[C@@H](C)O3)C1)CCNC2"
  pIC50: 6.92
- compound: "CCN1CCc2cn(C3CN(C[C@H]4CN(c5ccc(C#N)c6ncccc56)C[C@@H](C)O4)C3)nc2C1"
  pIC50: 6.71
- compound: "C[C@@H]1CN(c2ccc(C#N)c3ncccc23)C[C@H](CN2CC(n3cc4c(n3)[C@@H](C)NCC4)C2)O1 (single isomer, unassigned)"
  pIC50: 7.14
- compound: "C[C@@H]1CN(c2ccc(C#N)c3ncccc23)C[C@H](CN2CC(n3cc4c(n3)[C@H](C)NCC4)C2)O1 (single isomer, unassigned)"
  pIC50: 6.69
- compound: "C[C@@H]1Cc2c(cnn2C2CN(C[C@H]3CN(c4ccc(C#N)c5ncccc45)C[C@@H](C)O3)C2)CN1"
  pIC50: 7.08
- compound: "C[C@@H]1CN(c2ccc(C#N)c3ncccc23)C[C@H](CN2CC(n3cc4c(n3)CN(C)CC4)C2)O1"
  pIC50: 6.50
- compound: "C[C@@H]1CN(c2ccc(C#N)c3ncccc23)C[C@H](CN2CC(n3ncc4c3CNCC4)C2)O1"
  pIC50: 6.93
- compound: "C[C@@H]1CN(c2ccc(C#N)c3ncccc23)C[C@H](CN2CCN(c3ccncc3)CC2)O1 [ER-888286, reference compound]"
  pIC50: 5.79
- compound: "C[C@@H]1CN(c2ccc(C#N)c3ncccc23)C[C@H](CN2CC(n3ncc4c3CN[C@@H](C)C4)C2)O1 (single isomer, unassigned)"
  pIC50: 7.09
- compound: "C[C@@H]1Cc2cn(C3CN(C[C@H]4CN(c5ccc(C#N)c6ncccc56)C[C@@H](C)O4)C3)nc2CN1 (single isomer, unassigned)"
  pIC50: 6.79

All figures here come from patent US20210300924A1.
